# PROTOCOL DETAILS: Plasma metabolite profiling (GC-MS, LC-MS, SPE-LC-MS) of rats dosed once daily over 28 days; treatment ratios versus untreated control
# Assay type: in vivo, rat
# REPORTED CONDITIONS: plasma, female rats, day 28, high dose, Table 6b
Counter-ions that a name gives are not always drawn. Marks after values point to notes of the source that are not given here.
molecules and their reported Isopalmitic acid (C16:0), ratio versus control

Some entries whose results are on file:
MOLECULE: C=CCN1C[C@H](C(=O)N(CCCN(C)C)C(=O)NCC)C[C@@H]2c3cccc4[nH]cc(c34)C[C@H]21
VALUE REPORTED: 0.36*
--
MOLECULE: C#C[C@]1(O)CC[C@H]2[C@@H]3CCc4cc(O)ccc4[C@H]3CC[C@@]21C
VALUE REPORTED: 0.51*
--
MOLECULE: CN1CCc2cccc3c2[C@H]1Cc1ccc(O)c(O)c1-3
VALUE REPORTED: 0.93
--
MOLECULE: CC(C)C[C@H]1C(=O)N2CCC[C@H]2[C@]2(O)O[C@](NC(=O)[C@@H]3C=C4c5cccc6[nH]c(Br)c(c56)C[C@H]4N(C)C3)(C(C)C)C(=O)N12 [Bromocriptine Mesylate]
VALUE REPORTED: 0.62*

Now take the following molecule into account.
Query :: Given C#CCN(C)[C@H](C)Cc1ccccc1 [Selegiline hydrochloride] , state its recorded Isopalmitic acid (C16:0), ratio versus control.
Result :: 0.69*

---

# PROTOCOL DETAILS: Plasma metabolite profiling (GC-MS, LC-MS, SPE-LC-MS) of rats dosed once daily over 28 days; treatment ratios versus untreated control
# Type: in vivo, rat
# REPORTED CONDITIONS: plasma, female rats, day 28, high dose, Table 6b
Counter-ions that a name gives are not always drawn.
OUTCOME MEASURE: Myristic acid (C14:0), ratio versus control
Just the number.

COMPOUND: C#CCN(C)[C@H](C)Cc1ccccc1 [Selegiline hydrochloride]
VALUE REPORTED: 0.97

Now take the following compound into account.
Query :: Given CC(C)C[C@H]1C(=O)N2CCC[C@H]2[C@]2(O)O[C@](NC(=O)[C@@H]3C=C4c5cccc6[nH]c(Br)c(c56)C[C@H]4N(C)C3)(C(C)C)C(=O)N12 [Bromocriptine Mesylate] , state its recorded Myristic acid (C14:0), ratio versus control.
Result :: 0.84

---

molecules and their reported Choline plasmalogen No 03, ratio versus control
# PROTOCOL DETAILS: Plasma metabolite profiling (GC-MS, LC-MS, SPE-LC-MS) of rats dosed once daily over 28 days; treatment ratios versus untreated control
# Type: in vivo, rat
# REPORTED CONDITIONS: plasma, female rats, day 28, high dose, Table 6b
Counter-ions that a name gives are not always drawn. Marks after values point to notes of the source that are not given here.

MOLECULE: CN1CCc2cccc3c2[C@H]1Cc1ccc(O)c(O)c1-3
VALUE REPORTED: 0.89*
//
MOLECULE: C#CCN(C)[C@H](C)Cc1ccccc1 [Selegiline hydrochloride]
VALUE REPORTED: 0.82
//
MOLECULE: C=CCN1C[C@H](C(=O)N(CCCN(C)C)C(=O)NCC)C[C@@H]2c3cccc4[nH]cc(c34)C[C@H]21
VALUE REPORTED: 0.39*

Query :: Given CC(C)C[C@H]1C(=O)N2CCC[C@H]2[C@]2(O)O[C@](NC(=O)[C@@H]3C=C4c5cccc6[nH]c(Br)c(c56)C[C@H]4N(C)C3)(C(C)C)C(=O)N12 [Bromocriptine Mesylate] , state its recorded Choline plasmalogen No 03, ratio versus control.
Result :: 0.62*

Query :: Given `C#C[C@]1(O)CC[C@H]2[C@@H]3CCc4cc(O)ccc4[C@H]3CC[C@@]21C` , state its recorded Choline plasmalogen No 03, ratio versus control.
Result :: 0.38*

---

# PROTOCOL DETAILS: Plasma metabolite profiling (GC-MS, LC-MS, SPE-LC-MS) of rats dosed once daily over 28 days; treatment ratios versus untreated control
# Type: in vivo, rat
# REPORTED CONDITIONS: plasma, female rats, day 28, high dose, Table 6b
Structures can show the parent of a compound that is named as a salt. Marks after values point to notes of the source that are not given here.
OUTCOME MEASURE: Ceramide (d18:1,C24:1), ratio versus control

Some entries whose results are on file:
COMPOUND: C#CCN(C)[C@H](C)Cc1ccccc1 [Selegiline hydrochloride]
VALUE REPORTED: 0.48*

COMPOUND: CC(C)C[C@H]1C(=O)N2CCC[C@H]2[C@]2(O)O[C@](NC(=O)[C@@H]3C=C4c5cccc6[nH]c(Br)c(c56)C[C@H]4N(C)C3)(C(C)C)C(=O)N12 [Bromocriptine Mesylate]
VALUE REPORTED: 0.6*

COMPOUND: C#C[C@]1(O)CC[C@H]2[C@@H]3CCc4cc(O)ccc4[C@H]3CC[C@@]21C
VALUE REPORTED: 0.6*

COMPOUND: CN1CCc2cccc3c2[C@H]1Cc1ccc(O)c(O)c1-3
VALUE REPORTED: 0.61*

Now take the following compound into account.
Query :: Given `C=CCN1C[C@H](C(=O)N(CCCN(C)C)C(=O)NCC)C[C@@H]2c3cccc4[nH]cc(c34)C[C@H]21` , state its recorded Ceramide (d18:1,C24:1), ratio versus control.
Result :: 0.39*

---

# PROTOCOL DETAILS: Plasma metabolite profiling (GC-MS, LC-MS, SPE-LC-MS) of rats dosed once daily over 28 days; treatment ratios versus untreated control
# Type: in vivo, rat
# REPORTED CONDITIONS: plasma, female rats, day 28, high dose, Table 6b
Structures can show the parent of a compound that is named as a salt. Marks after values point to notes of the source that are not given here.
molecules and their reported 17-Methyloctadecanoic acid, ratio versus control

MOLECULE: C#CCN(C)[C@H](C)Cc1ccccc1 [Selegiline hydrochloride]
VALUE REPORTED: 0.57*
--
MOLECULE: C=CCN1C[C@H](C(=O)N(CCCN(C)C)C(=O)NCC)C[C@@H]2c3cccc4[nH]cc(c34)C[C@H]21 [Cabergoline]
VALUE REPORTED: 0.3*
--
MOLECULE: CC(C)C[C@H]1C(=O)N2CCC[C@H]2[C@]2(O)O[C@](NC(=O)[C@@H]3C=C4c5cccc6[nH]c(Br)c(c56)C[C@H]4N(C)C3)(C(C)C)C(=O)N12 [Bromocriptine Mesylate]
VALUE REPORTED: 0.67*

Query :: Given CN1CCc2cccc3c2[C@H]1Cc1ccc(O)c(O)c1-3 [Apomorphine] , state its recorded 17-Methyloctadecanoic acid, ratio versus control.
Result :: 0.73*

Query :: Given C#C[C@]1(O)CC[C@H]2[C@@H]3CCc4cc(O)ccc4[C@H]3CC[C@@]21C [17-alpha-Ethynylestradiol] , state its recorded 17-Methyloctadecanoic acid, ratio versus control.
Result :: 0.46*

---

# PROTOCOL DETAILS: Plasma metabolite profiling (GC-MS, LC-MS, SPE-LC-MS) of rats dosed once daily over 28 days; treatment ratios versus untreated control
# Type: in vivo, rat
# REPORTED CONDITIONS: plasma, female rats, day 28, high dose, Table 6a
Counter-ions that a name gives are not always drawn. Marks after values point to notes of the source that are not given here.
OUTCOME MEASURE: Isoleucine, ratio versus control

Query :: Given CC(C)C[C@H]1C(=O)N2CCC[C@H]2[C@]2(O)O[C@](NC(=O)[C@@H]3C=C4c5cccc6[nH]c(Br)c(c56)C[C@H]4N(C)C3)(C(C)C)C(=O)N12 [Bromocriptine Mesylate] , state its recorded Isoleucine, ratio versus control.
Result :: 1.14*

Query :: Given `CN1CCc2cccc3c2[C@H]1Cc1ccc(O)c(O)c1-3` , state its recorded Isoleucine, ratio versus control.
Result :: 1.25*

Query :: Given C#CCN(C)[C@H](C)Cc1ccccc1 [Selegiline hydrochloride] , state its recorded Isoleucine, ratio versus control.
Result :: 1.18*

Query :: Given `C=CCN1C[C@H](C(=O)N(CCCN(C)C)C(=O)NCC)C[C@@H]2c3cccc4[nH]cc(c34)C[C@H]21` , state its recorded Isoleucine, ratio versus control.
Result :: 1.14*

Query :: Given `C#C[C@]1(O)CC[C@H]2[C@@H]3CCc4cc(O)ccc4[C@H]3CC[C@@]21C` , state its recorded Isoleucine, ratio versus control.
Result :: 1.07

---

# PROTOCOL DETAILS: Plasma metabolite profiling (GC-MS, LC-MS, SPE-LC-MS) of rats dosed once daily over 28 days; treatment ratios versus untreated control
# Type: in vivo, rat
# REPORTED CONDITIONS: plasma, female rats, day 28, high dose, Table 6b
Where a name gives a salt, the structure may show the parent alone. Marks after values point to notes of the source that are not given here.
compounds and their reported 16-Methylheptadecanoic acid, ratio versus control

Some entries whose results are on file:
COMPOUND: C#CCN(C)[C@H](C)Cc1ccccc1 [Selegiline hydrochloride]
VALUE REPORTED: 0.55*

COMPOUND: CN1CCc2cccc3c2[C@H]1Cc1ccc(O)c(O)c1-3
VALUE REPORTED: 0.66*

COMPOUND: CC(C)C[C@H]1C(=O)N2CCC[C@H]2[C@]2(O)O[C@](NC(=O)[C@@H]3C=C4c5cccc6[nH]c(Br)c(c56)C[C@H]4N(C)C3)(C(C)C)C(=O)N12 [Bromocriptine Mesylate]
VALUE REPORTED: 0.51*

COMPOUND: C=CCN1C[C@H](C(=O)N(CCCN(C)C)C(=O)NCC)C[C@@H]2c3cccc4[nH]cc(c34)C[C@H]21
VALUE REPORTED: 0.28*

Now take the following compound into account.
Query :: Given `C#C[C@]1(O)CC[C@H]2[C@@H]3CCc4cc(O)ccc4[C@H]3CC[C@@]21C` , state its recorded 16-Methylheptadecanoic acid, ratio versus control.
Result :: 0.29*
